test method notes: NCI Yeast Anticancer Drug Screen. Data for the rad50EPP+ strain (AID 151);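 further: 0% = growth of vehicle-treated control cultures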
conditions: S. cerevisiae rad50 mutant strain, at 3.7 µM, hits give high values
The panel holds about 79,000 compounds, 15% with a hit somewhere; the sample as a whole holds those more often.
measured metric: growth inhibition (%)
Reply with just the number (in %).

Tell me its growth inhibition given CC1CCN(CCC(=O)c2ccc(Cl)cc2)CC1 as the entry.
-1

Find the measured growth inhibition of C/C(=N\NC(=S)SCc1ccccc1)c1ccccn1 and report it.
47

Using known records, supply growth inhibition for c1ccc2c(c1)C(=NCCCN1CCCCCC1)c1cccn1-2
-4

Hello, please tell me recorded growth inhibition for this one: CCC(=O)OCCn1c2nc(=O)[nH]c(=O)c-2nc2cc(C)c(C)cc21
-13

Supply growth inhibition value. Item: O=C1C2C=CC1C1C(=O)OC(=O)C21 (stereo not given)
-21

Data credit: PubChem BioAssay (NCI)
